Field: Activity. Provide a value for each of the molecules that follow.
- System: MCF-10A
- assay.overview: Cytotoxicity against human MCF-10A cells assessed as reduction in cell viability at 50 uM incubated for 4 days by MTT assay
- Format: toxicity, cell-based
- condition.description: 96 h, time 4 day
Respond with the bare value in %.

Value sought: Activity, system MCF-10A, item CCc1c(C(=O)NCCc2ccc(N3CCCCC3)cc2)[nH]c2ccc(C(F)(F)F)cc12 . Result: 85

Value sought: Activity, system MCF-10A, item CCc1c(C(=O)NCCc2ccc(N3CCOCC3)cc2)[nH]c2ccc(Br)cc12 . Result: 91

Value sought: Activity, system MCF-10A, item CCc1c(C(=O)NCCc2ccc(N3CCOCC3)cc2)[nH]c2ccc(C)cc12 . Result: 89

Value sought: Activity, system MCF-10A, item CCc1c(C(=O)N2CCN(c3ccccc3)CC2)[nH]c2ccc(C)cc12 . Result: 90

Value sought: Activity, system MCF-10A, item CCc1c(C(=O)N2CCN(c3ccccc3)CC2)[nH]c2ccc(C(F)(F)F)cc12 . Result: 91

Value sought: Activity, system MCF-10A, item CCc1c(C(=O)NCCc2ccc(N3CCCCC3)cc2)[nH]c2ccc(Br)cc12 . Result: 90

Value sought: Activity, system MCF-10A, item CCc1c(C(=O)NCCc2ccc(N(C)C)cc2)[nH]c2ccc(Br)cc12 . Result: 91

Value sought: Activity, system MCF-10A, item CCc1c(C(=O)NCCc2ccccc2)[nH]c2ccc(C(F)(F)F)cc12 . Result: 88

Value sought: Activity, system MCF-10A, item CCc1c(C(=O)N2CCN(c3ccccc3)CC2)[nH]c2ccc(Br)cc12 . Result: 85

Value sought: Activity, system MCF-10A, item CCc1c(C(=O)NCCc2ccc(N3CCCC3C)cc2)[nH]c2ccc(Br)cc12 (centres undefined) . Result: 86

Value sought: Activity, system MCF-10A, item CCc1c(C(=O)NCCc2ccc(N3CCOCC3)cc2)[nH]c2ccc(C(F)(F)F)cc12 . Result: 87

Value sought: Activity, system MCF-10A, item CCc1c(C(=O)NCCc2ccccc2)[nH]c2ccc(Br)cc12 . Result: 89

Value sought: Activity, system MCF-10A, item CCc1c(C(=O)NCCc2ccc(N3CCCCC3)cc2)[nH]c2ccc(C)cc12 . Result: 89

Value sought: Activity, system MCF-10A, item CCc1c(C(=O)NCCc2ccccc2)[nH]c2ccc(C)cc12 . Result: 87

* * *

- Tested on: A549
- assay.overview: Antiproliferative activity against human A549 cells by MTT assay
- Assay type: functional, cell-based
Field: IC50. Provide a value for each of the molecules that follow.
Respond with the bare value in µM.

Value sought: IC50, system A549, item CCc1c(C(=O)NCCc2ccccc2)[nH]c2ccc(C(F)(F)F)cc12 . Result: 0.157

Value sought: IC50, system A549, item CCc1c(C(=O)NCCc2ccc(N3CCOCC3)cc2)[nH]c2ccc(Br)cc12 . Result: 0.067

Value sought: IC50, system A549, item CCc1c(C(=O)NCCc2ccc(N3CCOCC3)cc2)[nH]c2ccc(C)cc12 . Result: 0.034

Value sought: IC50, system A549, item CCc1c(C(=O)N2CCN(c3ccccc3)CC2)[nH]c2ccc(Br)cc12 . Result: 0.185

Value sought: IC50, system A549, item CCc1c(C(=O)N2CCN(c3ccccc3)CC2)[nH]c2ccc(C)cc12 . Result: 0.125

Value sought: IC50, system A549, item CCc1c(C(=O)NCCc2ccc(N3CCCCC3)cc2)[nH]c2ccc(C(F)(F)F)cc12 . Result: 0.077

Value sought: IC50, system A549, item CCc1c(C(=O)NCCc2ccc(N(C)C)cc2)[nH]c2ccc(Br)cc12 . Result: 0.108

Value sought: IC50, system A549, item CCc1c(C(=O)NCCc2ccc(N3CCCCC3)cc2)[nH]c2ccc(C)cc12 . Result: 0.051

Value sought: IC50, system A549, item CCc1c(C(=O)NCCc2ccccc2)[nH]c2ccc(Br)cc12 . Result: 0.138

Value sought: IC50, system A549, item CCc1c(C(=O)NCCc2ccc(N3CCOCC3)cc2)[nH]c2ccc(C(F)(F)F)cc12 . Result: 0.043
